The reader will find reported pIC50 values listed item by item below.
Target: protein-protein interaction between Kras and SOS1 (biotin-tagged human Kras loaded with GDP, His-tagged human SOS1) (Homo sapiens (Human), UniProt P01116, G12D)
Experiment: Protein-protein interaction inhibition between Kras and SOS1 (KrasG12D-SOS PPI) using AlphaScreen;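 further: kras produced in E. coli, Ni-coupled donor beads and streptavidin acceptor beads, excitation 680 nm with emission detected at 520–620 nm via singlet oxygen transfer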
Format: biochemical
Conditions: AlphaScreen; biotin-tagged human Kras loaded with GDP, His-tagged human SOS1; read-out: KRAS G12D-SOS PPI IC50
pIC50: −log10 of the molar value. Numbered stars: 1 amine (or outer) side, 2 acyl side, 3 side chain; on linkers, the order of the positions; unused ones are H or OH. Square brackets hold non-standard residues; d marks the D form. Peptide text beside a SMILES is read from it. hPhe(3-Cl-4-CF3) = N[C@@H](CCc1ccc(C(F)(F)F)c(Cl)c1)C(=O)O; hPhe(3-F,4-CF3) = N[C@@H](CCc1ccc(C(F)(F)F)c(F)c1)C(=O)O; NMePhe(4-Cl) = CN[C@@H](Cc1ccc(Cl)cc1)C(=O)O; NMedβ3hAla = C[C@H](CC(=O)[*:2])N(C)[*:1]; NMeGly(cPent) = CN[C@H](C(=O)O)C1CCCC1; NMeCha = CN[C@@H](CC1CCCCC1)C(=O)O; Gly(cBu) = N[C@H](C(=O)O)C1CCC1; NMeL = CN[C@@H](CC(C)C)C(=O)O; NMeV = CN[C@H](C(=O)O)C(C)C; d(β3hA) = C[C@@H](N)CC(=O)O; NMeA = CN[C@@H](C)C(=O)O; NMeAib = CNC(C)(C)C(=O)O; Ac5c = NC1(C(=O)O)CCCC1; Aze = O=C(O)[C@@H]1CCN1; Sar = CNCC(=O)O
Outcome Measure: pIC50

- Compound: "CC[C@H](C)[C@@H]1NC(=O)[C@H](CC(C)C)N(C)C(=O)C[C@@H](C)N(C)C(=O)[C@H]([C@@H](C)CC)NC(=O)C(C)(C)N(C)C(=O)[C@H](CC(C)C)NC(=O)[C@H](CCc2ccc(C(F)(F)F)c(F)c2)NC(=O)CN(C)C(=O)[C@H](Cc2ccc(Cl)cc2)N(C)C(=O)CN(C)C(=O)CN(C)C1=O [Compound 800] (cyclo(I[Sar][Sar][NMePhe(4-Cl)][Sar][hPhe(3-F,4-CF3)]L[NMeAib]I[NMedβ3hAla][NMeL]))"
  Outcome Measure: "pIC50"
  Value: 7.07
- Compound: "CC[C@H](C)[C@@H]1NC(=O)[C@H](CC(C)C)N(C)C(=O)C[C@@H](C)N(C)C(=O)[C@H](C2CCCC2)N(C)C(=O)C2(CCCC2)NC(=O)[C@@H]2CCCN2C(=O)[C@H](CCc2ccc(C(F)(F)F)c(Cl)c2)NC(=O)CN(C)C(=O)[C@H](CC2CCCCC2)N(C)C(=O)[C@@H]2CCN2C(=O)[C@H](C)N(C)C1=O [Compound 1717] (cyclo([Ac5c][NMeGly(cPent)][NMedβ3hAla][NMeL]I[NMeA][Aze][NMeCha][Sar][hPhe(3-Cl-4-CF3)]P))"
  Outcome Measure: "pIC50"
  Value: 8.48
- Compound: "CC(C)C[C@H]1C(=O)N[C@@H](C2CCC2)C(=O)N(C)[C@@H](C)C(=O)N2CC[C@H]2C(=O)N(C)[C@@H](CC2CCCCC2)C(=O)N(C)CC(=O)N[C@@H](CCc2ccc(C(F)(F)F)c(Cl)c2)C(=O)N2CCC[C@H]2C(=O)NC2(CCCC2)C(=O)N(C)[C@@H](C(C)C)C(=O)N[C@H](C)CC(=O)N1C [Compound 580] (cyclo([Ac5c][NMeV][d(β3hA)][NMeL][Gly(cBu)][NMeA][Aze][NMeCha][Sar][hPhe(3-Cl-4-CF3)]P))"
  Outcome Measure: "pIC50"
  Value: 7.18
